system: DENV-4; assay: Inhibition of DENV replication in Huh-7 cells, viral RNA by quantitative real time PCR; assay type: cell-based, dengue virus; conditions: Dengue virus, DENV4, Huh-7, 48 h, DENV-4 strain H241, Huh-7 cells, mean ± SD of 3 experiments
Property label: IC50 (µM)
Give the value in µM but do not write µM after it.

Please look up its IC50: CC(C)C(=O)OC[C@@]1(N=[N+]=[N-])O[C@@H](n2ccc(N)nc2=O)[C@H](OC(=O)C(C)C)[C@@H]1OC(=O)C(C)C
11

###

test system: DENV-2; assay: Inhibition of DENV replication in Huh-7 cells, viral RNA by quantitative real time PCR; assay type: cell-based, dengue virus; details: Dengue virus, DENV2, Huh-7, 48 h, DENV-2 strain 32/0102 (clinical isolate), Huh-7 cells, mean ± SD of 3 experiments
Property label: pIC50
Answer as the number alone; pIC50 is minus log10 of concentration in mol/L.

Please look up its pIC50: CC(C)C(=O)OC[C@@]1(N=[N+]=[N-])O[C@@H](n2ccc(N)nc2=O)[C@H](OC(=O)C(C)C)[C@@H]1OC(=O)C(C)C
5.52
